Tested on: TK-10 renal
Assay: NCI tumour cell line growth inhibition, 48 h
Could you please report measured TGI for the items listed next?

// solved cases for TGI follow
- MOLECULE: "C=CCOc1ccc2c(c1)CC[C@@H]1[C@@H]2CC[C@]2(C)C(=O)/C(=N/O)C[C@@H]12"
  RECORDED_RESULT: "13.3 µM"
- MOLECULE: "COc1ccc2oc(=O)c(-c3nc4ccccc4s3)cc2c1"
  RECORDED_RESULT: "> 100 µM"
- MOLECULE: "Cn1c(=O)c2nc3sc4ccccc4c(=N)n3c2n(C)c1=O"
  RECORDED_RESULT: "> 100 µM"
- MOLECULE: "CC12CCC(C)(c3cc(O)c(O)cc31)c1cc(O)c(O)cc12"
  RECORDED_RESULT: "40.3 µM"
- MOLECULE: "O=C1N(c2ccccc2)N=C2c3ccncc3C3=NN(c4ccccc4)C(=O)C123 (stereo not given)"
  RECORDED_RESULT: "> 100 µM"

Each of the following entries comes with a recorded value; kindly state TGI for each.
1. Nc1nc(-c2ccccc2Cl)cc(-c2ccc(Cl)cc2Cl)n1
2. COc1ccc(S(=O)(=O)Nc2c(/C=C\c3cc(OC)c(OC)c(OC)c3)ccc(OC)c2O)cc1OC
3. Cc1cnc2n(c1=O)Cc1ccccc1CO2
4. COc1cc(-c2cc(C(=O)N3CCN(C(=O)c4ccccc4NCc4cccs4)CC3)nc3cc(-c4ccccc4)nn23)cc(OC)c1OC
5. CC(C)N=C(NC#N)NS(=O)(=O)c1cnccc1NC1CCCCCCC1

Key:
51 µM
> 100 µM
49.4 µM
> 100 µM
> 100 µM

====

Tested on: BT-549 breast
Test: NCI tumour cell line growth inhibition, 48 h
VALUE_KIND: TGI (µM)
Numbers only, in µM.

- MOLECULE: "COc1cc(-c2nc3cc(Cl)c(Cl)cc3[nH]2)ccc1OCC(=O)N=Nc1c(O)[nH]c2ccccc12"
  VALUE_KIND: "TGI"
  RECORDED_RESULT: 2.29
- MOLECULE: "CCCCCCCCCCCC(=O)[O][Sn]([CH2]CCC)([CH2]CCC)[CH2]CCC"
  VALUE_KIND: "TGI"
  RECORDED_RESULT: 0.184

Let us examine a further case.
Exercise: Field request: TGI | item: CC(=O)SC(C[N+](=O)[O-])c1ccccc1 (stereo unspecified)
Key: 5.19

====

Could you please report measured TGI for the items listed next?
Tested on: SW-620 colon
Test: NCI tumour cell line growth inhibition, 48 h

// solved cases for TGI follow
- MOLECULE: "COc1ccc(/C=C2/C(=O)C(c3ccccc3)N(c3ccccc3)C2=O)cc1OC (stereo not given)"
  EXPERIMENTAL_TARGET: "SW-620 colon"
  TGI: "> 10 µM"
- MOLECULE: "CC1(C)OC(=O)C(c2ccsc2)C(=O)O1"
  EXPERIMENTAL_TARGET: "SW-620 colon"
  TGI: "> 100 µM"
- MOLECULE: "CC(C)[Si](CC1=CCCCC12C(=O)N(COCC[Si](C)(C)C)c1ccccc12)(C(C)C)C(C)C (stereo not given)"
  EXPERIMENTAL_TARGET: "SW-620 colon"
  TGI: "> 100 µM"
- MOLECULE: "COc1ccc2c(C(=O)NCCCCCC(=O)O)cc3cc4c(cc3c2c1)OCO4"
  EXPERIMENTAL_TARGET: "SW-620 colon"
  TGI: "> 100 µM"

Exercise: Field request: TGI | item: C=CCOc1ccc2c(c1)CC[C@@H]1[C@@H]2CC[C@]2(C)C(=O)/C(=N/O)C[C@@H]12
Key: 12.2 µM
